Test system: human airway epithelial cells (HAECs)
Assay: High-throughput sequencing (HTS) of miRNAs at four stages of differentiation of HAECs
Settings: stage D0; Table VI
OBSERVED_PROPERTY: Level of intensity of expression in log2 measured by high-throughput sequencing, D0

# SUBSTANCE, RESULT
data = [
    ("hsa-miR-224: human miRNA, SEQ ID No. 24 (CAAGUCACUAGUGGUUCCGUU; expressed or natural sequence; listed as Homo sapiens)", "9.59 log2"),
    ("hsa-miR-96: human miRNA, SEQ ID No. 51 (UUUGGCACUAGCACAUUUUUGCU; expressed or natural sequence; listed as Homo sapiens)", "5.41 log2"),
]

Entry hsa-miR-29c: human miRNA, SEQ ID No. 32 (UAGCACCAUUUGAAAUCGGUUA; expressed or natural sequence; listed as Homo sapiens) : Level of intensity of expression in log2 measured by high-throughput sequencing, D0 on human airway epithelial cells (HAECs) = 13.66 log2

Short answer on human airway epithelial cells (HAECs) for hsa-miR-25: human miRNA, SEQ ID No. 27 (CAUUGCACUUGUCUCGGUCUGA; expressed or natural sequence; listed as Homo sapiens) , Level of intensity of expression in log2 measured by high-throughput sequencing, D0: 9.11 log2

Level of intensity of expression in log2 measured by high-throughput sequencing, D0 value, target or system human airway epithelial cells (HAECs), for hsa-miR-27b: human miRNA, SEQ ID No. 30 (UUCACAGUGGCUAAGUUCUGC; expressed or natural sequence; listed as Homo sapiens) : 6.92 log2

The measured Level of intensity of expression in log2 measured by high-throughput sequencing, D0 that hsa-miR-22: human miRNA, SEQ ID No. 23 (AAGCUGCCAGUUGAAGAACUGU; expressed or natural sequence; listed as Homo sapiens) showed for human airway epithelial cells (HAECs) is 8.89 log2

Case hsa-miR-30c: human miRNA, SEQ ID No. 34 (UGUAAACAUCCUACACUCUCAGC; expressed or natural sequence; listed as Homo sapiens) , human airway epithelial cells (HAECs), Level of intensity of expression in log2 measured by high-throughput sequencing, D0 recorded as 0.42 log2
